src = PubChem BioAssay

The entries below are paired with their reported composite z-score.
- experiment summary: small-molecule microarray binders of probe aLefty2, primary screen, biochemical, biotinylated probe, 635/667 nm fluorescence (AID 1094);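 further: score merges spot fluorescence near 667 nm with spot signal-to-noise ratio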
- run parameters: higher = more signal

[
  {
    "compound": "CC(CCN1CCc2nc(-c3ccccc3)c(-c3ccccc3)cc2C1)=NOC(C)CN1CCCCc2nc(C)c(C)cc21 (stereo not given)",
    "composite z-score": -0.0813
  },
  {
    "compound": "C=CC[C@@H]1C=C[C@H](ON=C2c3cc(OC)ccc3O[C@H](c3cccc(OC)c3)[C@H]2O)[C@@H](CO)O1",
    "composite z-score": -0.233
  },
  {
    "compound": "C[C@@H](c1ccccc1)N1C(=O)[C@H]2[C@H]3[C@H](O)[C@H](O)CC(=NOC[C@@H](O)COCc4ccco4)[C@@H]3CC[C@H]2C1=O",
    "composite z-score": -0.217
  },
  {
    "compound": "CC1CC/C=C\\[C@H]2OC34C=CCN(Cn5nnc6ccccc65)C(=O)[C@H]3N(CCO)C(=O)[C@@H]4C2C(=O)O1 (stereo not given in full)",
    "composite z-score": -0.0819
  },
  {
    "compound": "CC(C)=CCCC(C)=CCON=C1[C@H]2CCn3c(=O)n(Cc4cc5c(cc4Cl)OCO5)c(=O)n3[C@H]2[C@H](O)[C@@H]2O[C@H]12",
    "composite z-score": 0.0392
  },
  {
    "compound": "O=C1C[C@@H](O)[C@@H](O)[C@@H]2[C@@H]3C(=O)N(Cc4ccc5c(c4)OCO5)C(=O)[C@@H]3CC[C@@H]12",
    "composite z-score": -0.072
  },
  {
    "compound": "CCN(CC)c1ccc(N2CC=CC34O[C@@H]5/C=C\\CCC(C)OC(=O)C5[C@H]3C(=O)N(CCCO)[C@@H]4C2=O)cc1 (stereo not given in full)",
    "composite z-score": -0.143
  },
  {
    "compound": "Cc1ccc(S[C@]2(C(=O)NCC(F)(F)F)CC(=O)N(Cc3ccccc3Cl)[C@@H]2c2ccc(CO)cc2I)cc1",
    "composite z-score": -0.0998
  },
  {
    "compound": "O=C(NN=C1C[C@@H](O)[C@@H](O)[C@@H]2[C@@H]3C(=O)N(c4ccc(F)cc4F)C(=O)[C@@H]3CC[C@@H]12)OCc1ccccc1",
    "composite z-score": -0.11
  },
  {
    "compound": "CC(C)NC(=O)[C@@H]1c2ccccc2C(=O)N(CC23CC4CC(CC(C4)C2)C3)[C@H]1c1ccc(CO)cc1",
    "composite z-score": -0.143
  },
  {
    "compound": "CC(=O)O[C@H]1C2=C(C(=O)[C@@H]3O[C@@H]31)[C@H]1C(C)O[C@@H]2[C@@]23C(=O)[C@@H]4O[C@@H]4[C@@H](O)C2=CO[C@H](C)[C@@H]13 (stereo not given in full)",
    "composite z-score": -0.265
  },
  {
    "compound": "CCOC(=O)CCN1C(=O)[C@H]2[C@H]3[C@H](O)C=CC(=O)[C@@H]3CC[C@H]2C1=O",
    "composite z-score": -0.239
  },
  {
    "compound": "c1ccc(C2NCCc3c2[nH]c2ccccc32)cc1 (stereo not given)",
    "composite z-score": -0.126
  },
  {
    "compound": "CCCNC(=O)[C@@H]1c2ccccc2C(=O)N(Cc2ccccc2Cl)[C@H]1c1ccc(CO)cc1",
    "composite z-score": 0.102
  },
  {
    "compound": "O=C1C2C=CC(C(O)c3ccc([N+](=O)[O-])cc3)N(Nc3ccc([N+](=O)[O-])cc3)C2C(=O)N1c1ccccc1 (stereo not given)",
    "composite z-score": 0.198
  }
]

----------
- experiment summary: mitochondrial membrane potential change in A549 cells, profiling panel, cell-based, JC-1 fluorescence, basal, 24 h, 100 nL (AID 1138);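 further: A549 lung adenocarcinoma cells under basal conditions with no added stimulus; test concentration not given here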
- run parameters: higher = more signal
Lab note: anything with z-score at or over 0.3 counts as Met; the rest go in Not met.

[
  {
    "compound": "C[C@H](c1ccccc1)N1C(=O)[C@H]2[C@@H]3C(=CC[C@H]2C1=O)C(=O)[C@H]1O[C@H]1[C@H]3O",
    "assigned category": "Not met"
  },
  {
    "compound": "Cc1cc2c(nc1C)CCCN2CC(O)CN1CCN(C)CC1 (stereo not drawn)",
    "assigned category": "Met"
  },
  {
    "compound": "O=C1O[C@@H](c2ccccc2)[C@@H](c2ccccc2)N2[C@@H](c3ccccc3OCCO)[C@]3(C(=O)Nc4ccc(C#CCCO)cc43)[C@@H](C(=O)O)[C@H]12",
    "assigned category": "Not met"
  },
  {
    "compound": "O=C1C[C@]2(c3ccc([N+](=O)[O-])cc3)C(=O)N(CCN3CCOCC3)c3cc(CO)ccc3[C@H]2N1CC12CC3CC(CC(C3)C1)C2",
    "assigned category": "Not met"
  },
  {
    "compound": "COC(=O)CC1OC1[C@H](C)[C@@H](OC)C(C)C (stereo partly drawn)",
    "assigned category": "Met"
  },
  {
    "compound": "COc1ccc(O[C@H]2C=C[C@@H](c3ccccc3)O[C@@H]2COC(=O)N2CCCCC2)cc1",
    "assigned category": "Not met"
  },
  {
    "compound": "CN1C(=O)C2C=CC(C(O)c3ccc(I)cc3)N(NC(=O)OC(C)(C)C)C2C1=O (stereo not drawn)",
    "assigned category": "Not met"
  },
  {
    "compound": "COCCCNC(=O)[C@@]1(C)c2ccccc2C(=O)N(Cc2ccc(OC(F)(F)F)cc2)[C@H]1c1ccc(CO)cc1",
    "assigned category": "Met"
  },
  {
    "compound": "CN1C(=O)C2C=CC(C(O)c3ccc(Br)cc3)N(N(c3ccccc3)c3ccccc3)C2C1=O (stereo not drawn)",
    "assigned category": "Met"
  },
  {
    "compound": "O=C1[C@H]2[C@H]3[C@H](O)[C@H](O)CC(=NOC[C@@H](O)COCc4ccco4)[C@H]3CC[C@H]2C(=O)N1Cc1ccc2c(c1)OCO2",
    "assigned category": "Not met"
  },
  {
    "compound": "CCOC(=O)[C@H](CC(C)C)NC(=O)CCC1CC(OC(=O)NCCc2ccc(F)cc2)CC2(CCCC(COC(=O)NCc3ccccc3)O2)O1 (stereo partly drawn)",
    "assigned category": "Not met"
  },
  {
    "compound": "CS(=O)(=O)CCOC(=O)C1=CC(CCCO)=CC(c2cccs2)N(Cc2cccc(OC(F)(F)F)c2)C=C1C(=O)OCCS(C)(=O)=O (stereo not drawn)",
    "assigned category": "Met"
  },
  {
    "compound": "C=CCNC(=O)[C@H]1[C@@H]2C(=O)O[C@@H](c3ccccc3)[C@@H](c3ccccc3)N2[C@@H](c2ccc(O)cc2)[C@]12C(=O)N(C(=O)OCCOC)c1ccc(C#CC3=CCCCC3)cc12",
    "assigned category": "Not met"
  },
  {
    "compound": "COC(=O)[C@@]1(Cc2ccc(F)cc2)[C@H]2c3cc(C(=O)N(C)C)n(Cc4ccc(OC)c(OC)c4)c3C[C@H]2CN1C(=O)c1ccccc1",
    "assigned category": "Met"
  },
  {
    "compound": "CC(C)(C)N1CC=CC23O[C@@H]4C=CCCOC(=O)C4[C@H]2C(=O)N(CCCCCO)[C@@H]3C1=O (stereo partly drawn)",
    "assigned category": "Met"
  },
  {
    "compound": "CC=CC1=C(CO)[C@H](O)[C@H]2O[C@H]2[C@H]1O",
    "assigned category": "Not met"
  },
  {
    "compound": "COc1ccc(-c2nc3c(c4c2C[C@H](C)OC4)CN(CCC(C)C)CC3)cc1",
    "assigned category": "Met"
  },
  {
    "compound": "CN1C(=O)C2C=CC(C(O)C(c3ccccc3)c3ccccc3)N(NC(=O)OC(C)(C)C)C2C1=O (stereo not drawn)",
    "assigned category": "Not met"
  },
  {
    "compound": "COc1cccc([C@@H]2Oc3ccc(Br)cc3C(=O)[C@H]2O)c1",
    "assigned category": "Met"
  },
  {
    "compound": "CCOC(=O)C[C@H]1[C@H](OC(=O)c2cc3ccccc3oc2=O)[C@@H](NC(=O)c2ccc3ccccc3n2)c2cc(OCCCO)ccc2N1C(=O)c1ccccc1",
    "assigned category": "Not met"
  },
  {
    "compound": "O=C1CCCC=C1C(O)CCOCc1ccccc1 (stereo not drawn)",
    "assigned category": "Not met"
  },
  {
    "compound": "CCOC(=O)[C@H](Cc1ccccc1)NC(=O)CCC1CC(OC(=O)NCCc2ccc(F)cc2)CC2(CCCC(COC(=O)NCC(c3ccccc3)c3ccccc3)O2)O1 (stereo partly drawn)",
    "assigned category": "Met"
  },
  {
    "compound": "O=C1O[C@@H](c2ccccc2)[C@@H](c2ccccc2)N2[C@@H](c3ccc(O)cc3)[C@]3(C(=O)Nc4ccccc43)[C@@H](C(=O)O)[C@H]12",
    "assigned category": "Not met"
  },
  {
    "compound": "CCc1cc2c(nc1CC)CCN(CCC(C)=NOC[C@@H](O)COCc1ccco1)C2",
    "assigned category": "Met"
  },
  {
    "compound": "COC(=O)CC=C[C@H](C)[C@H](CO)NS(=O)(=O)c1ccc(C)cc1",
    "assigned category": "Not met"
  },
  {
    "compound": "COc1ccc([Si](C)(C)[C@H]2[C@H](CCO)O[C@@]3(C(=O)N(Cc4cccc(NC(=O)[C@H](C)O)c4)c4ccccc43)[C@@H]2C)cc1",
    "assigned category": "Not met"
  },
  {
    "compound": "C=CC[C@@H]1C=C[C@H](ON=C(C)CCN2CCc3nc(CC)c(CC)cc3C2)[C@@H](CO)O1",
    "assigned category": "Met"
  },
  {
    "compound": "COCCOC(=O)N1C(=O)[C@@]2(c3cc(C#Cc4ccc(OC)cc4)ccc31)[C@H](c1ccc(O)cc1)N1[C@H](c3ccccc3)[C@H](c3ccccc3)OC(=O)[C@H]1[C@@H]2C(N)=O",
    "assigned category": "Not met"
  }
]
